Where do these numbers come from? They come from paper PMC12061832.

- tested-target: hENT1 (Homo sapiens)
- Construct: performed on erythrocyte cell membranes endogenously expressing the transporter; tissue Sanquin Bloedvoorziening, Amsterdam, The Netherlands; host or cells: erythrocyte membranes (endogenous expression)
- test-summary: time-dependent hENT1 radioligand binding assay ([3H]NBTI displacement with or without 4 h preincubation)
- details: 1 µM inhibitor; without preincubation; mean (individual values) of two experiments
measurement-name: % displacement at 1 μM without preincubation

| compound | tested-target | result |
| --- | --- | --- |
| C=CC(=O)Nc1ccc(C(=O)OCCCCN2CCN(CCCOC(=O)c3cc(OC)c(OC)c(OC)c3)CC2)cc1 [Compound 10c] | hENT1 (Homo sapiens) | 47 (40, 54) % |
| C=CC(=O)NCc1ccc(C(=O)OCCCN2CCN(CCCOC(=O)c3cc(OC)c(OC)c(OC)c3)CC2)cc1 [Compound 10e] | hENT1 (Homo sapiens) | 29 (24, 35) % |
| COc1cc(C(=O)OCCCN2CCN(CCCOC(=O)c3ccc(S(=O)(=O)F)cc3)CC2)cc(OC)c1OC | hENT1 (Homo sapiens) | 26 (24, 27) % |
| C=CC(=O)NCCc1ccc(C(=O)OCCCN2CCN(CCCOC(=O)c3cc(OC)c(OC)c(OC)c3)CC2)cc1 [Compound 10f] | hENT1 (Homo sapiens) | 10 (2, 18) % |
| COc1cc(C(=O)OCCCN2CCN(CCCCOC(=O)c3cccc(S(=O)(=O)F)c3)CC2)cc(OC)c1OC | hENT1 (Homo sapiens) | 61 (53, 69) % |
| COc1cc(C(=O)OCCCN2CCN(CCCOC(=O)c3cccc(S(=O)(=O)F)c3)CC2)cc(OC)c1OC | hENT1 (Homo sapiens) | 33 (32, 33) % |

Ask: Suppose we examine the compound COc1cc(C(=O)OCCCN2CCN(CCOC(=O)c3cccc(S(=O)(=O)F)c3)CC2)cc(OC)c1OC ; what % displacement at 1 μM without preincubation value has been reported?
Reply: -14 (-21, -7) %

Ask: # % displacement at 1 μM without preincubation lookup, item C=CC(=O)Nc1ccc(C(=O)OCCCN2CCN(CCCOC(=O)c3cc(OC)c(OC)c(OC)c3)CC2)cc1OC [Compound 10d]
Reply: 27 (28, 26) %

Ask: What does the record list as % displacement at 1 μM without preincubation for C=CC(=O)Nc1cccc(C(=O)OCCCN2CCN(CCCOC(=O)c3cc(OC)c(OC)c(OC)c3)CC2)c1 [Compound 10a] ?
Reply: 20 (15, 26) %

Ask: Look up % displacement at 1 μM without preincubation for this compound: COc1cc(C(=O)OCCCN2CCN(CCOC(=O)c3ccc(S(=O)(=O)F)cc3)CC2)cc(OC)c1OC
Reply: 17 (12, 22) %

Ask: Please report the recorded % displacement at 1 μM without preincubation for COc1cc(C(=O)OCCCN2CCN(CCCCOC(=O)c3ccc(S(=O)(=O)F)cc3)CC2)cc(OC)c1OC .
Reply: 57 (52, 62) %

----------
- tested-target: hENT1 (Homo sapiens, UniProt Q99808)
- Construct: performed on erythrocyte cell membranes endogenously expressing the transporter; tissue Sanquin Bloedvoorziening, Amsterdam, The Netherlands; host or cells: erythrocyte membranes (endogenous expression)
- Sequence (Q99808 whole entry): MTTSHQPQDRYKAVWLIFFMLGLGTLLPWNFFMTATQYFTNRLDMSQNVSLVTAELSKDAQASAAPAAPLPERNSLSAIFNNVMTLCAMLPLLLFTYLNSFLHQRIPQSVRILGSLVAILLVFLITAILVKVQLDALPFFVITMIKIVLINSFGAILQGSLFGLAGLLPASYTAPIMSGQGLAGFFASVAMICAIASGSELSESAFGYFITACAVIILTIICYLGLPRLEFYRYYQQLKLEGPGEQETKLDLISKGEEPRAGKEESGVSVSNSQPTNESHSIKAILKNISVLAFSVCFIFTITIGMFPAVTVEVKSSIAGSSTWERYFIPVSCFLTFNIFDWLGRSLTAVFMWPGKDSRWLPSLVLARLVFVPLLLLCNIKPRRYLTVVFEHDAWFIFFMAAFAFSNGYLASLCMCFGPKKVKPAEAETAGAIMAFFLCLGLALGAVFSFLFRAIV
- test-summary: [3H]NBTI displacement assay on erythrocyte membranes
- Type: binding
- details: 1 µM inhibitor; [3H]NBTI displacement; mean (individual values) of two experiments
# % displacement at 1 μM per record follows

In the examples that follow, each entry is paired with its recorded % displacement at 1 μM.
| compound-structure-string | result |
| --- | --- |
| COc1cc(C(=O)OCCCN2CCN(CCCOC(=O)c3ccc(C)cc3)CC2)cc(OC)c1OC | 7 (10, 3) % |
| COc1ccc(C(=O)OCCCN2CCN(CCCOC(=O)c3ccc(OC)cc3)CC2)cc1 | -8 (-5, -11) % |
| COc1cc(C(=O)OCCCN2CCN(CCCOC(=O)c3ccc(Cl)c(Cl)c3)CC2)cc(OC)c1OC | -4 (-7, -1) % |
| COc1cc(C(=O)OCCCN2CCN(CCCOC(=O)c3cccc(N(C)C)c3)CC2)cc(OC)c1OC | 21 (21, 21) % |
| COc1ccccc1C(=O)OCCCN1CCN(CCCOC(=O)c2ccccc2OC)CC1 | 7 (15, -1) % |

Ask: Quick one: % displacement at 1 μM for COc1cc(C(=O)OCCCN2CCN(CCCOC(=O)c3ccccc3)CC2)cc(OC)c1OC ?
Reply: -3 (0, -5) %

Ask: // lookup % displacement at 1 μM for COc1cc(C(=O)OCCCN2CCN(CCCOC(=O)c3ccc(N(C)C)cc3)CC2)cc(OC)c1OC
Reply: 19 (11, 26) %

Ask: Query: % displacement at 1 μM; subject: COc1cc(C(=O)OCCCN2CCN(CCCOC(=O)c3cc(C)cc(C)c3)CC2)cc(OC)c1OC
Reply: -4 (-4, -4) %

Ask: Can you look up the measured % displacement at 1 μM of COc1cc(C(=O)OCCCN2CCN(CCCOC(=O)c3ccc(C)c(C)c3)CC2)cc(OC)c1OC for me?
Reply: -7 (-7, -8) %

Ask: // lookup % displacement at 1 μM for COc1cccc(C(=O)OCCCN2CCN(CCCOC(=O)c3cccc(OC)c3)CC2)c1
Reply: 8 (11, 4) %
